Method notes: In vivo evaluation in rats (blood, urine and feces levels)
Set-up: species or system female Wistar rats
Condition set: rat, feces, po, 250 mg/kg, p.o., read-out: Unchanged compound in feces
Experimental: A solution of test compound in DMSO was injected slowly through the jugular vein (65 mg/kg) to a group of female Wistar rats (150-200 g), 1.00 ml blood samples were taken at various time intervals, mixed with 2.00 ml of ice cold acetonitrile, and placed in a freezer. When all samples had been collected, they were centrifuged and the supernatant analyzed by HPLC. […] A solution of test compound in polyethylene glycol was given p.o. to a group of rats (0.25 g/kg) and blood samples analyzed as before. […]
Experimental endpoint: dose excreted

Entry Cc1cccc(C)c1NC(=O)C[S+](C)C , dose excreted reported as ~7%

====

Method notes: Estimation of LD50 in mice
Condition set: mouse, in vivo, ip, intraperitoneal in dimethylsulfoxide, observed for 48 hr
Experimental endpoint: LD50 at 48 h (mg/kg)
Give your result in mg/kg as a bare value.

# Compound, LD50 at 48 h, mg/kg
data = [
    ("CCSCC(=O)Nc1c(C)cccc1C [Example 5]", 2100),
]

Could you now consider this next compound?
Entry Cc1cccc(C)c1NC(=O)C[S+](C)C [Example 2] , LD50 at 48 h reported as 300
